B1: OR4K15 (parent)
chain: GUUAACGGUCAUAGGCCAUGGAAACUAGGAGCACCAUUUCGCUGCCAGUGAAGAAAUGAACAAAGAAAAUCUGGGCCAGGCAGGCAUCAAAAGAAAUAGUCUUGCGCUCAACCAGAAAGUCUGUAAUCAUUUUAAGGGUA

Variants of: B1
Experiment: self-cleavage, relative activity (ratio to wild type); higher = more cleavage; in vitro, sequencing; the parent is a self-cleaving ribozyme
Reported self-cleavage values follow for various variants

> print(dat)
   variant.identifier  value
1           A67U U97C   1.43
2           C34A A82G   0.76
3           U26C A86G   1.33
4            U2C A56G   1.12

Problem: I would be grateful if you could share the reported self-cleavage for A129U .
Solution: 0.65

Problem: I would be grateful if you could share the reported self-cleavage for A33G A129C .
Solution: 0.63

Problem: I would be grateful if you could share the reported self-cleavage for A52G G74A .
Solution: 0.13

Problem: I would be grateful if you could share the reported self-cleavage for A86U A94G .
Solution: 1.72

Problem: I would be grateful if you could share the reported self-cleavage for A22U A60G .
Solution: 1.29

Problem: I would be grateful if you could share the reported self-cleavage for A5G G104A .
Solution: 0.03
